Data credit: patent US20150374676A1

- ASSAY NAME: Single-dose escalation pharmacokinetics in volunteers
- Assay type: in vivo, human
- CONDITION NOTES: plasma; single oral dose 160 mg free base equivalent; human; median, n = 6; read-out: tmax
QUANTITY KIND: Tmax (h)
Please reply with the bare figure in h and do not write the unit itself.

Tell us which Tmax value is on record for CS(=O)(=O)O.Cc1nc(N(C)C(=O)Cc2ccc(-c3ccccn3)cc2)sc1S(N)(=O)=O [mono mesylate monohydrate salt] 3.5

----------
- ASSAY NAME: Multiple-dose escalation, steady state pharmacokinetics in healthy volunteers
- Format: in vivo, human
- CONDITION NOTES: human, plasma, oral; 5 mg free base equivalent once daily, day 21 steady state; healthy volunteers n=12; dosing interval 24 hours; read-out: AUCτ
QUANTITY KIND: AUC (ng·h/mL)
Please reply with the bare figure in ng·h/mL and do not write the unit itself.

Tell us which AUC value is on record for CS(=O)(=O)O.Cc1nc(N(C)C(=O)Cc2ccc(-c3ccccn3)cc2)sc1S(N)(=O)=O [mono mesylate monohydrate salt] 5090

----------
- ASSAY NAME: Single-dose escalation pharmacokinetics in volunteers
- Format: in vivo, human
- CONDITION NOTES: plasma; single oral dose 20 mg free base equivalent; human; mean, n = 6
- Excerpt: Exposure of the free base form of N-[5-(aminosulfonyl)-4-methyl-1,3-thiazol-2-yl]-N-methyl-2-[4-(2-pyridinyl)-phenyl]acetamide to the human body may be measured by high pressure liquid chromatography (HPLC) by looking at different pharmacokinetic parameters in suitable bodily fluids such as for instance blood plasma and urine, the most common parameters being the Cmax, the so-called area under the curve (AUC), and the terminal half-life (t1/2Z). […]
QUANTITY KIND: MRT (h)
Please reply with the bare figure in h and do not write the unit itself.

Tell us which MRT value is on record for CS(=O)(=O)O.Cc1nc(N(C)C(=O)Cc2ccc(-c3ccccn3)cc2)sc1S(N)(=O)=O [mono mesylate monohydrate salt] 105

----------
- ASSAY NAME: Single-dose escalation pharmacokinetics in volunteers
- Format: in vivo, human
- CONDITION NOTES: female; single oral dose 80 mg free base equivalent, females; human; mean, n = 6; free base in plasma; read-out: Cmax
- Excerpt: Exposure of the free base form of N-[5-(aminosulfonyl)-4-methyl-1,3-thiazol-2-yl]-N-methyl-2-[4-(2-pyridinyl)-phenyl]acetamide to the human body may be measured by high pressure liquid chromatography (HPLC) by looking at different pharmacokinetic parameters in suitable bodily fluids such as for instance blood plasma and urine, the most common parameters being the Cmax, the so-called area under the curve (AUC), and the terminal half-life (t1/2Z). […]
QUANTITY KIND: Cmax (ng/mL)
Please reply with the bare figure in ng/mL and do not write the unit itself.

Tell us which Cmax value is on record for CS(=O)(=O)O.Cc1nc(N(C)C(=O)Cc2ccc(-c3ccccn3)cc2)sc1S(N)(=O)=O [mono mesylate monohydrate salt] 2000

----------
- ASSAY NAME: Single-dose escalation pharmacokinetics in volunteers
- Assay type: in vivo, human
- CONDITION NOTES: male, plasma; single oral dose 80 mg free base equivalent, males; human; mean, n = 6
QUANTITY KIND: MRT
State the value with its unit after it.

Tell us which MRT value is on record for CS(=O)(=O)O.Cc1nc(N(C)C(=O)Cc2ccc(-c3ccccn3)cc2)sc1S(N)(=O)=O [mono mesylate monohydrate salt] 94 h
